Measured inhibition accompanies every entry in the list below.
# Tested target: Glucose transporter (Leishmania mexicana) (UniProt O61059)
# Protocol summary: ST_JUDE_LEISH: Cytotoxicity at 2uM final concentration against transgenic Leishmania Mexicana promastigotes LmGT2 that are glucose transport deficient and complemented with the L. Mexicana glucose transporter 2. Activity is measured by DNA content using SYBR green in vitro
# Assay type: functional
Response body: numeric value in %, unit text excluded.

Examples from the recorded data:
>  <Compound>
CN(CCS(C)(=O)=O)Cc1ccc(-c2ccc3ncnc(Nc4ccc(OCc5cccc(F)c5)c(Cl)c4)c3c2)o1

>  <Reading>
-0.85

$$$$
>  <Compound>
Cc1cc(=O)[nH]c(-n2nc(C)cc2NC(=O)C(c2ccccc2)c2ccccc2)n1

>  <Reading>
6.5

$$$$
>  <Compound>
O=C(N[C@@H](Cc1ccccc1)C(=O)NCCN1CCCCC1)c1ccc(O)c(-c2ccc(Cl)c(Cl)c2)c1

>  <Reading>
0.78

$$$$
>  <Compound>
COc1ccc(-c2nc(NC(=O)CSc3ccccc3)sc2C)cc1

>  <Reading>
6.37

$$$$
>  <Compound>
O=C1NC(=O)C(c2ccc(Cl)cc2)=C1Nc1cccc(S(=O)(=O)C(F)(F)F)c1

>  <Reading>
1.48

$$$$
>  <Compound>
COc1ccc(CNCc2cccc(-c3ccc(-c4nc5ccccc5[nH]4)s3)c2)cc1

>  <Reading>
2.44

$$$$
>  <Compound>
Clc1ccc(-c2cnc3ccc(NCCc4cccnc4)nn23)cc1

>  <Reading>
0.12

$$$$
>  <Compound>
COc1ccc2[nH]ccc(=NN=Cc3ccccc3)c2c1

>  <Reading>
5.06

$$$$
>  <Compound>
Cc1ccc2c(O)c([N+](=O)[O-])c(O)nc2c1

>  <Reading>
1.6

$$$$
>  <Compound>
COc1ccccc1-c1cc(C(=O)N2CCN(S(=O)(=O)c3ccc(C)cc3)CC2)[nH]n1

>  <Reading>
-0.58

$$$$

Find inhibition (Glucose transporter (Leishmania mexicana) (UniProt O61059)) for the entry `CCCCC1(NC(=O)[C@@H](Nc2ccc(C#N)c3ccccc23)C2CCCCC2)CCCCC1`
-0.93

Next up: `OCC1CCN(Cc2ccc(-c3ccc(-c4nc5cc(C(F)(F)F)ccc5[nH]4)cc3)cc2)CC1`
3.07

Do the same for COc1ccc(Cl)cc1NC(=O)C(C)Nc1ccc(-c2ccccc2)cc1 (stereo not given) please
5.12

Also, `Cc1ccnc2nc(C(=O)Nc3cc(C(F)(F)F)ccc3N3CCCCC3)nn12` please.
1.77

Can you handle `c1ccc(CCNCc2cccc(-c3ccc(CNc4ccc5ncccc5c4)cc3)c2)cc1` next?
3.8

Then this compound: `CSc1ccc(NC(=O)Nc2cc(C)nc3ccccc23)cc1`
10.3

How about `O=C(/C=C/c1ccc(-c2ccccc2)cc1)NCCCCCN1CCC(c2c[nH]c3ccccc23)CC1` ?
-1.76

How about this compound: CCC1N=C(N)N=C(N)N1OCc1cccc2ccccc12 (stereo not given)
1.16

Would you kindly repeat that for `Cc1ccc(/C=C/C(=O)N2CCC(CCN3CCC(c4c[nH]c5ccccc45)CC3)CC2)cc1C` ?
6.17

Another: Clc1ccc(CNc2nc(NCCc3c[nH]cn3)nc(N3CCCC4CCCCC43)n2)cc1 (stereo not given)
3.89

Input `CCc1ccc(C2CCN(CCCCNC(=O)c3ccc(NC(=O)c4ccc(Cl)cc4)cc3)CC2)c(OC)c1`
1.66
